# Lookup of reported ECL Signal [10 nM Fab] keyed by entry
- subjectOfTest: T1, Recombinant Human DLL4 (delta-like protein 4) (human, UniProt Q9NR61 27-524)
- T1 construct: Bought recombinant human DLL4 (R&D Systems Cat#1506-D4/CF); also called rHuman DLL4
- methodDescription: ECL (MSD) binding assay, immobilised DLL4, 10 nM Fab;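 note: fab binding read as electrochemiluminescence via a TAG-labelled detection antibody, 1 h incubations at 20 °C, antigen signal compared with each well's blank, ratio of at least 4 scored as binder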
Returns: the value as a bare number; no unit string appended.

Field: example entries. Status: answers known.
Fab VH5-51_IGHD5-18*01>3_IGHJ4*01 G100K/G104T & V3-4_IGLJ1*01 M94S (Fab, V domains shown, Fab; expressed with CH1 (His and Flag tags) and lambda CL from the expression plasmids; also called H:KT & M94S) VH: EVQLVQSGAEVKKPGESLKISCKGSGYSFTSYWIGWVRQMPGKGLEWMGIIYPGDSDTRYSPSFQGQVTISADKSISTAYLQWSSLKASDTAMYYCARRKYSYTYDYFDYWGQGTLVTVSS VL: QTVVTQEPSFSVSPGGTVTLTCGLSSGSVSTSYYPSWYQQTPGQAPRTLIYSTNTRSSGVPDRFSGSILGNKAALTITGAQADDESDYYCVLYSGSGISYVFGTGTKVTVL
49600
Fab VH5-51_IGHD5-18*01>3_IGHJ4*01 G100K/G104T & V3-4_IGLJ1*01 V91E (Fab, V domains shown, Fab; expressed with CH1 (His and Flag tags) and lambda CL from the expression plasmids; also called H:KT & V91E) VH: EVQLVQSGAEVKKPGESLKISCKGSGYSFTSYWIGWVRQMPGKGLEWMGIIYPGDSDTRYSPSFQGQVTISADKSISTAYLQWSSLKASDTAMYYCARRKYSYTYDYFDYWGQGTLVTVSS VL: QTVVTQEPSFSVSPGGTVTLTCGLSSGSVSTSYYPSWYQQTPGQAPRTLIYSTNTRSSGVPDRFSGSILGNKAALTITGAQADDESDYYCELYMGSGISYVFGTGTKVTVL
22500
Fab VH5-51_IGHD5-18*01>3_IGHJ4*01 G100K/G104T & V3-4_IGLJ1*01 V91I (Fab, V domains shown, Fab; expressed with CH1 (His and Flag tags) and lambda CL from the expression plasmids; also called H:KT & V91I) VH: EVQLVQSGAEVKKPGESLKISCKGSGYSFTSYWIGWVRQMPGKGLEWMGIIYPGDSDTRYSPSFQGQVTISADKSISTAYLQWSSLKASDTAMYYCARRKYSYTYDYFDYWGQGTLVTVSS VL: QTVVTQEPSFSVSPGGTVTLTCGLSSGSVSTSYYPSWYQQTPGQAPRTLIYSTNTRSSGVPDRFSGSILGNKAALTITGAQADDESDYYCILYMGSGISYVFGTGTKVTVL
51200

Moving on to the next binder.
Prompt line: Would you mind telling me what ECL Signal [10 nM Fab] value was observed for Fab VH5-51_IGHD5-18*01>3_IGHJ4*01 G100K/G104T & V3-4_IGLJ1*01 V91L (Fab, V domains shown, Fab; expressed with CH1 (His and Flag tags) and lambda CL from the expression plasmids; also called H:KT & V91L) VH: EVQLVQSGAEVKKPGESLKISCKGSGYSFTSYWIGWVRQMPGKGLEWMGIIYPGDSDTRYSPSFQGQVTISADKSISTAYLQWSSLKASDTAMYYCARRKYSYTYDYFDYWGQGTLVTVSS VL: QTVVTQEPSFSVSPGGTVTLTCGLSSGSVSTSYYPSWYQQTPGQAPRTLIYSTNTRSSGVPDRFSGSILGNKAALTITGAQADDESDYYCLLYMGSGISYVFGTGTKVTVL ?
Response line: 41600
